Measured self-cleavage, listed per entry.
B1: HDV Ribozyme (parent)
chain: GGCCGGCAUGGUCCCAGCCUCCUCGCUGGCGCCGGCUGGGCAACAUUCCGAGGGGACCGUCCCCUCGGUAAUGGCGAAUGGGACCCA

Variants of: B1
TEST: self-cleavage, relative activity (ratio to wild type); higher = more cleavage; co-transcriptional

VARIANT DESIGNATION	self-cleavage
U46G C86G	1.01
A43G G54C	0.511
C13U U79C	0.103
C33U C58A	1.06
U37G	0.131
C18A U23C	0
C4U G81C	0.135
A8C C62U	0.918
G67U A87G	0.91
G10U G25A	0.114
C15G G68C	0.511
